Value source: the RNAGym collection of RNA variant scans (doi:10.7554/elife.80360)

B1: CPEB3 Ribozyme (parent)
chain: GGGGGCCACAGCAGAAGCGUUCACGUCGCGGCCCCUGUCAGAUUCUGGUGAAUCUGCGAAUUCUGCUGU

variants of: B1; assay: self-cleavage, relative activity (ratio to wild type); higher = more cleavage; co-transcriptional
Where self-cleavage equals or exceeds 0.4, the correct label is met; where it does not, the label is not met.

{"columns": ["variant_descriptor", "group"],
 "data": [
  ["U20A U46A", "not met"],
  ["G19C G37C", "not met"],
  ["A40G G65C", "met"],
  ["U36A A60G", "not met"],
  ["G1A G17U", "not met"],
  ["A51C G65A", "met"],
  ["U44C G50C", "met"],
  ["U20G G68A", "not met"],
  ["G11A A51G", "met"],
  ["G14A A51C", "met"],
  ["C35U C63G", "met"],
  ["G5A U20G", "not met"],
  ["A40C U62C", "not met"],
  ["G1C C22G", "not met"],
  ["C12A G68U", "met"],
  ["A15U G41C", "not met"],
  ["U38A G48U", "met"],
  ["G4U G47U", "met"],
  ["U20A C27G", "not met"],
  ["C12G U46C", "met"],
  ["G4C A59G", "not met"],
  ["G17C A40G", "not met"]
]}
